# System: SK-OV-3
# Assay details: NCI tumour cell line growth inhibition, 48 h
The source made the active and inactive calls. Cut-off read from the data, not from the text of the source: active = GI50 up to about 1.1 µM and inactive = higher.
Measured endpoint: GI50

Illustrative cases are given below, each with its answer.
Clc1ccc(CCn2cncn2)cc1 = > 100 µM (inactive)
COc1ccc2c(c1)CCc1c-2[nH]c2ccc(OC)cc12 = > 100 µM (inactive)
CC1(C)OC2OC(C(=O)c3ccccc3)C3OC(C)(C)OC3C2O1 (stereo unspecified) = > 100 µM (inactive)
CCOC(=O)c1sc2nc(SC)nc3c2c1NCN3C = 16.1 µM (inactive)

For each of the molecules below, state GI50.
1. COC(=O)[C@]1(c2ccc(N(C)C)cc2OC)C[C@@H]2CCCN(CCc3c1[nH]c1ccccc31)C2
2. Cc1c2c(c(C)c3c1[nH]c1ccccc13)CN(C)CC2

Result:
1. > 47 µM (inactive)
2. 25.5 µM (inactive)

====

Hi there, I'd appreciate the recorded GI50 for every entry that follows.
# Test system: OVCAR-4
# Assay details: NCI tumour cell line growth inhibition, 48 h
The source made the active and inactive calls. Cut-off read from the data, not from the text of the source: active = GI50 up to about 1.1 µM and inactive = higher.

Illustrative cases are given below, each with its answer.
CC1(C)OC2C(O)CN3CCS[C@H]3C2O1 (stereo partly specified) = > 100 µM (inactive)
CCCCSC1=N/C(=C\c2ccc(N(C)C)cc2)C(=O)N1 = 21 µM (inactive)
CCOC(=O)c1c(-c2ccc(OC)cc2)c(C#N)c(=S)n(C2OC(CO)C(O)C(O)C2O)c1-c1ccccc1 (stereo unspecified) = 34.3 µM (inactive)
CC(CC[C@@]1(C)C(=O)CCC2O[C@]21C)[C@H]1C[C@@H](c2ccoc2)OC1=O (stereo partly specified) = 20.6 µM (inactive)
O=C(O)C1Cc2[nH]cnc2CN1 (stereo unspecified) = > 100 µM (inactive)

For each of the compounds below, state GI50.
1. NS(=O)(=O)c1nnc(NC(=S)NC(=O)Nc2ccc(Cl)c(Cl)c2)s1
2. CC(=O)/C(=C\NC(=S)Nc1ccc(S(N)(=O)=O)cc1)C(=O)Nc1ccccc1C
3. Cn1c(NNc2ccccc2)cc(=O)[nH]c1=O
4. [O-]/[N+](=N/c1ncc(-c2ccccc2)cn1)c1ncc(-c2ccccc2)cn1
5. Cc1ccc(/C=N/NS(=O)(=O)c2ccccc2)c(C)c1
6. COc1cc(/C=C2/SC(c3ccccc3)N(c3ccc(NC(C)=O)cc3)C2=O)cc(OC)c1OC (stereo unspecified)

Result:
1. 19.5 µM (inactive)
2. 36.9 µM (inactive)
3. 55.8 µM (inactive)
4. 54.6 µM (inactive)
5. > 100 µM (inactive)
6. > 100 µM (inactive)

For each of the compounds below, state GI50.
1. Cc1ccc(/C(Cl)=C/C=C(C#N)C#N)cc1
2. CC1(C)C2CC3C4CC5(Nc6ccccc6C5N41)[C@]3(C)CC2=O (stereo partly specified)
3. COC(=O)/C=C\C(C#N)(C#N)/N=C/c1ccc(Br)s1

Result:
1: 3.22 µM (inactive); 2: > 50 µM (inactive); 3: 6.61 µM (inactive)

For each of the compounds below, state GI50.
1. CC(C)/C(Cl)=N/OC(=O)Nc1ccc(OC(F)(F)F)cc1
2. COC(=O)C(C/C=C(\C)c1ccccc1)C(C)=O (stereo unspecified)

Result:
1: 4.19 µM (inactive); 2: 56 µM (inactive)

====

# Tested on: OVCAR-5
# Assay details: NCI tumour cell line growth inhibition, 48 h
Activity calls are given as the source filed them. No stated cut-off is given here; in the data, active = GI50 up to about 1.1 µM and inactive = higher. Where a SMILES comes first, the peptide text is derived from it. [ ]: non-standard residue; d: D form. The star is where a group is joined. ξ: configuration not given here. X4 = COc1ccc(C(N*)c2ccc(OC)cc2)cc1; NMeF = CN[C@@H](Cc1ccccc1)C(=O)O; NMeD = CN[C@@H](CC(=O)O)C(=O)O; NMeV = CN[C@H](C(=O)O)C(C)C; ξNMeV = CNC(C(=O)O)C(C)C; Boc = CC(C)(C)OC(=O)*; ξNMeA = CNC(C)C(=O)O; ξV = CC(C)C(N)C(=O)O
Measured endpoint: GI50

Illustrative cases are given below, each with its answer.
COC(=O)C1(O)C(c2ccccc2)=NC2(C)CCCC21 (stereo not given) = > 100 µM (inactive)
CCCCCCCCCCCCCCCC(=O)OCC1OC(OC)C(NC(=O)N(CCCl)N=O)C(O)C1O (stereo not given) = 35 µM (inactive)
CCCC(C(=O)Nc1cccc2nc[nH]c12)C(=O)OCC (stereo not given) = > 100 µM (inactive)
CC(C)(c1ccccc1)c1ccc(Oc2ccc(C#N)c(C#N)c2)cc1 = > 10 µM (inactive)
COc1ccc(C(NC(=O)C[C@@H](C(=O)N(C)C(C)C(=O)O)N(C)C(=O)[C@@H]2CCCN2C(=O)[C@H](C(C)C)N(C)C(=O)C(C(C)C)N(C)C(=O)[C@H](Cc2ccccc2)N(C)C(=O)C(NC(=O)OC(C)(C)C)C(C)C)c2ccc(OC)cc2)cc1 (stereo not given in full) (Boc-[ξV][NMeF][ξNMeV][NMeV]P[NMeD](X4)[ξNMeA]-OH) = > 37.5 µM (inactive)

For each of the molecules below, state GI50.
1. COC(=O)/C=C\C(C#N)(C#N)/N=C/c1ccc(Br)s1
2. Cc1nc(-c2nc(C)c(C(=O)/C=C/c3ccc([N+](=O)[O-])cc3)s2)sc1C(=O)/C=C/c1ccc([N+](=O)[O-])cc1

Result:
1: 9.64 µM (inactive); 2: > 100 µM (inactive)

====

# System: OVCAR-4
# Assay details: NCI tumour cell line growth inhibition, 48 h
Activity calls are given as the source filed them. Rule as the data show it: active = GI50 up to about 1.1 µM and inactive = higher.
Select the correct class. Options are TRUE for active, FALSE for inactive and nothing else.

A selection of reference data follows.
COc1cccc(-c2nc3c(C(=O)NCCN(C)C)cccc3[nH]2)c1 = FALSE
CCOC(=O)C(Cl)(NC(=O)OCc1ccccc1)C(F)(F)F (stereo unspecified) = FALSE
CCOC(=O)C1N(S(=O)(=O)c2ccc(C)cc2)CCC12C(c1ccc(OC)cc1)NC1CCCCC12 (stereo unspecified) = FALSE
CS/C1=C(\c2ccc(C)cc2)N(c2ccccc2)C(=O)C(=O)N(c2ccccc2)/C(c2ccc(C)cc2)=C(/SC)SS1 = FALSE
CC1SC2(CCCCC2)N(NC(=O)CSc2nc3ccc(Cl)cc3c(=O)n2-c2ccccc2)C1=O (stereo unspecified) = FALSE
Cc1c(CNc2ccc(C(=O)NC(CC(=O)O)C(=O)O)cc2)ccc2nc(N)nc(N)c12 (stereo unspecified) = FALSE

Ask: For "CCOC(=O)C1=C(C(C)=O)CSC(c2ccccc2)=N1" , which call appears in the assay record?
Result: FALSE

Ask: For "Cc1cn(Cc2ccccc2CCO)c(=S)[nH]c1=O" , which call appears in the assay record?
Result: FALSE

Ask: For CCOP(=O)(OCC)C(C)(CC)N/C(N)=N/C#N (stereo unspecified) , which call appears in the assay record?
Result: FALSE

Ask: For "CC1=NN(C(=O)c2ccccc2O)C(=O)/C1=C/c1ccc([N+](=O)[O-])cc1" , which call appears in the assay record?
Result: TRUE

Ask: For "CSC1=N/C(=C\c2ccc(C)cc2)C(=O)N1CN1CCCCC1" , which call appears in the assay record?
Result: FALSE

Ask: For "CC(C)=CCc1cc2c(cc1O)OC[C@H]1c3cc4c(cc3O[C@@H]21)OCO4" , which call appears in the assay record?
Result: FALSE

Ask: For "O=C(c1ccco1)c1ccccc1C(=O)c1ccco1" , which call appears in the assay record?
Result: FALSE

Ask: For CC(C)OCC1CC(CC(=O)Nc2nncs2)C(=O)O1 (stereo unspecified) , which call appears in the assay record?
Result: FALSE

Ask: For NS(=O)(=O)c1ccc(NC(=O)C2C(=O)C(=O)N(c3ccc(S(N)(=O)=O)cc3)C2=O)cc1 (stereo unspecified) , which call appears in the assay record?
Result: FALSE

Ask: For COc1ccc(C2C3=C(N=C4SC(C(C)=O)=C(C)N42)c2ccccc2CC3)cc1 (stereo unspecified) , which call appears in the assay record?
Result: FALSE

Ask: For Clc1ccc(Cc2nc3cc(Cl)c(Cl)cc3n2CC2CCCN3CCCCC23)cc1 (stereo unspecified) , which call appears in the assay record?
Result: FALSE

====

Hi there, I'd appreciate the recorded GI50 for every entry that follows.
# System: A549
# Assay details: NCI tumour cell line growth inhibition, 48 h
Active and inactive are the calls of the source. No stated cut-off is given here; in the data, active = GI50 up to about 1.1 µM and inactive = higher.

Illustrative cases are given below, each with its answer.
COc1ccc2nc3cc(Cl)ccc3c(Sc3ccc([N+](=O)[O-])cc3)c2c1 = > 10 µM (inactive)
CCOC(=O)/C(=C/c1ccc(C(F)(F)F)cc1)N(CC)CC = 38.8 µM (inactive)
CCOC(=O)[N-]c1ccc(S(=O)(=O)[O+](C)CCl)cc1.CCOC(=O)[N-]c1ccc(S(=O)(=O)[O+](C)CCl)cc1.NC(=O)N=O.NC(=O)OCCCl = > 100 µM (inactive)
Nc1nc(Cl)cc(NCC2(CO)CCCCC2)n1 = > 100 µM (inactive)
COc1cccc(C=C2N=C(C)N(n3c(-c4ccccc4)nc4ccccc4c3=O)C2=O)c1 = > 100 µM (inactive)
Nc1nc(Cl)c(/C=N\O)c(NCC2(CO)CC(=O)C2)n1 = 30.8 µM (inactive)
Cc1cc(S(=O)(=O)Nc2nc(N)n[nH]2)c(S)cc1Cl = > 10 µM (inactive)
C=CCc1cc(OC)c2c(c1)C(O)CC(c1ccccc1)O2 (stereo not given) = > 100 µM (inactive)

For each of the compounds below, state GI50.
1. COc1ccc(-c2nc(-c3cnccn3)n(COCCO)n2)cc1
2. O=S(=O)(c1ccccc1)C1(C2(S(=O)(=O)c3ccccc3)CCN=N2)CCN=N1 (stereo not given)

Result:
1: > 100 µM (inactive); 2: > 100 µM (inactive)
